Procedure Summary: Rat brain concentration
Type: in vivo, Sprague Dawley rats
Run Conditions: Sprague Dawley, brain, po, 5 mg/kg, P.O. 5 mg/Kg, 2 hr, read-out: Brain Conc. (ng/g) No. 1

[
  {
    "Structure As Smiles": "CN(C)C/C=C/C(=O)Nc1cc2c(Nc3ccc(F)c(Cl)c3)ncnc2cc1C#C[C@@H]1[C@H]2COC[C@@H]12",
    "concentration at 2 h, ng/g": 118
  }
]

###

Procedure Summary: Rat pharmacokinetics studies (plasma)
Assay type: in vivo, Sprague Dawley rats
Run Conditions: male, Sprague Dawley; rat plasma, PO 5 mg/Kg

[
  {
    "Structure As Smiles": "CN(C)C/C=C/C(=O)Nc1cc2c(Nc3ccc(F)c(Cl)c3)ncnc2cc1C#C[C@@H]1[C@H]2COC[C@@H]12",
    "Value Units": "h",
    "half-life": 14.9
  }
]
